Below is a list of entries, each paired with its recorded percent inhibition of TGF-beta1 mRNA relative to untreated control cells value.
# Test system: human TGF-beta1 mRNA
# protocolNotes: Dose-dependent confirmation of antisense inhibition of human TGF-beta1 in HuVEC cells, electroporation (Example 6)
# Type: cell-based
# conditionContext: 0.15625 nM oligonucleotide
In the oligonucleotide strings, read from the 5' end, every base follows the letter of its sugar. An asterisk marks phosphorothioate; unmarked linkages are phosphodiester. Other units and linkages are bracketed, terminal groups are in braces. A string of capitals states the bases alone. e = 2'-O-(2-methoxyethyl) (MOE); [5mC] = 5-methylcytosine; d = 2'-deoxy (DNA)
attributeMeasured: percent inhibition of TGF-beta1 mRNA relative to untreated control cells

{"substance": "413982 (antisense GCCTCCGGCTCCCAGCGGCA; sugars from the 5' end e2 d13 e5, backbone and methylation of C not given here) [compound 413982]", "result": "26%"}
{"substance": "414040 (antisense e[5mC]*eT*d[5mC]*dT*d[5mC]*dT*d[5mC]*d[5mC]*dA*dT*d[5mC]*dT*dT*dT*dA*eA*eT*eG*eG*eG) [compound 414040]", "result": "57%"}
{"substance": "414035 (antisense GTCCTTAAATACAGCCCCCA; sugars from the 5' end e2 d13 e5, backbone and methylation of C not given here) [compound 414035]", "result": "17%"}
{"substance": "414036 (antisense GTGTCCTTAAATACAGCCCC; sugars from the 5' end e2 d13 e5, backbone and methylation of C not given here) [compound 414036]", "result": "10%"}

###

# System: human TGF-beta1 mRNA
# protocolNotes: Dose-dependent confirmation of antisense inhibition of human TGF-beta1 in HuVEC cells after large-scale synthesis, Lipofectamine 2000, 0.007-15 nM (Example 5)
# Assay type: cell-based
# conditionContext: Lipofectamine 2000, Example 5
In the oligonucleotide strings, read from the 5' end, every base follows the letter of its sugar. An asterisk marks phosphorothioate; unmarked linkages are phosphodiester. Other units and linkages are bracketed, terminal groups are in braces. A string of capitals states the bases alone. e = 2'-O-(2-methoxyethyl) (MOE); [5mC] = 5-methylcytosine; d = 2'-deoxy (DNA)
attributeMeasured: IC50 (nM)

{"substance": "414036 (antisense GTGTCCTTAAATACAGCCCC; sugars from the 5' end e2 d13 e5, backbone and methylation of C not given here) [compound 414036]", "resultNumber": 0.15}
{"substance": "413982 (antisense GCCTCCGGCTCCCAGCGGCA; sugars from the 5' end e2 d13 e5, backbone and methylation of C not given here) [compound 413982]", "resultNumber": 0.24}
{"substance": "414040 (antisense e[5mC]*eT*d[5mC]*dT*d[5mC]*dT*d[5mC]*d[5mC]*dA*dT*d[5mC]*dT*dT*dT*dA*eA*eT*eG*eG*eG) [compound 414040]", "resultNumber": 0.04}
{"substance": "414035 (antisense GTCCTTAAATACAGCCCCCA; sugars from the 5' end e2 d13 e5, backbone and methylation of C not given here) [compound 414035]", "resultNumber": 0.13}

###

# System: human TGF-beta1 mRNA
# protocolNotes: Antisense inhibition of human TGF-beta1 mRNA in HuVEC cells, single 10 nM dose, Lipofectamine 2000 (Example 2)
# Format: cell-based
# conditionContext: 10 nM oligonucleotide, HuVEC, relative to untreated control cells; gapmers targeted to SEQ ID NO: 2
In the oligonucleotide strings, read from the 5' end, every base follows the letter of its sugar. An asterisk marks phosphorothioate; unmarked linkages are phosphodiester. Other units and linkages are bracketed, terminal groups are in braces. A string of capitals states the bases alone. e = 2'-O-(2-methoxyethyl) (MOE); [5mC] = 5-methylcytosine; d = 2'-deoxy (DNA)

{"substance": "414120 (antisense e[5mC]*eA*d[5mC]*dA*d[5mC]*d[5mC]*d[5mC]*dT*dG*dG*dA*dA*d[5mC]*dA*dT*eA*e[5mC]*eA*eA*eA) [compound 414120]", "unitString": "%", "% inhibition": 40}
{"substance": "414099 (antisense eG*eT*dA*dG*dG*d[5mC]*dT*dA*dT*dT*dA*dA*dT*dA*dG*eT*eT*eA*eA*eG) [compound 414099]", "unitString": "%", "% inhibition": 37}
{"substance": "414091 (antisense eG*eG*dT*dA*dT*d[5mC]*d[5mC]*dA*d[5mC]*dA*dA*dT*dT*dG*dG*e[5mC]*e[5mC]*eA*eG*eT) [compound 414091]", "unitString": "%", "% inhibition": 64}
{"substance": "414092 (antisense eG*eA*dG*dA*dT*dA*d[5mC]*d[5mC]*dA*dA*dT*dA*dT*dT*d[5mC]*eT*eG*e[5mC]*eT*eT) [compound 414092]", "unitString": "%", "% inhibition": 86}
{"substance": "414079 (antisense eG*eT*d[5mC]*dT*dT*dG*dG*dT*dT*dA*dT*d[5mC]*dA*d[5mC]*dT*eA*eT*eG*eT*e[5mC]) [compound 414079]", "unitString": "%", "% inhibition": 62}
{"substance": "414103 (antisense eA*eT*dT*d[5mC]*dA*dA*dG*dT*dA*dA*dG*dG*dT*d[5mC]*dT*eA*e[5mC]*eA*e[5mC]*eA) [compound 414103]", "unitString": "%", "% inhibition": 58}

###

# System: human TGF-beta1 mRNA
# protocolNotes: Dose-dependent antisense inhibition of human TGF-beta1 in HuVEC cells, Lipofectamine 2000, 0.3292-80 nM, comparison with oligos of U.S. Pat. No. 6,436,909 (Example 4)
# Assay type: cell-based
# conditionContext: 8.8889 nM
In the oligonucleotide strings, read from the 5' end, every base follows the letter of its sugar. An asterisk marks phosphorothioate; unmarked linkages are phosphodiester. Other units and linkages are bracketed, terminal groups are in braces. A string of capitals states the bases alone. e = 2'-O-(2-methoxyethyl) (MOE); [5mC] = 5-methylcytosine; d = 2'-deoxy (DNA)

{"substance": "414036 (antisense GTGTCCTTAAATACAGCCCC; sugars from the 5' end e2 d13 e5, backbone and methylation of C not given here) [compound 414036]", "percent inhibition of TGF-beta1, %": 93}
{"substance": "413982 (antisense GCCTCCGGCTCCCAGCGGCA; sugars from the 5' end e2 d13 e5, backbone and methylation of C not given here) [compound 413982]", "percent inhibition of TGF-beta1, %": 95}
{"substance": "414035 (antisense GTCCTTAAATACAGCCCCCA; sugars from the 5' end e2 d13 e5, backbone and methylation of C not given here) [compound 414035]", "percent inhibition of TGF-beta1, %": 94}
{"substance": "414040 (antisense e[5mC]*eT*d[5mC]*dT*d[5mC]*dT*d[5mC]*d[5mC]*dA*dT*d[5mC]*dT*dT*dT*dA*eA*eT*eG*eG*eG) [compound 414040]", "percent inhibition of TGF-beta1, %": 94}

###

# Tested on: human TGF-beta1 mRNA
# protocolNotes: Dose-dependent antisense inhibition of human TGF-beta1 in HuVEC cells, Lipofectamine 2000, 0.9375-30 nM (Example 3)
# Format: cell-based
# conditionContext: 7.5 nM, Lipofectamine 2000
In the oligonucleotide strings, read from the 5' end, every base follows the letter of its sugar. An asterisk marks phosphorothioate; unmarked linkages are phosphodiester. Other units and linkages are bracketed, terminal groups are in braces. A string of capitals states the bases alone. e = 2'-O-(2-methoxyethyl) (MOE); [5mC] = 5-methylcytosine; d = 2'-deoxy (DNA)
Below is a list of entries, each paired with its recorded percent inhibition of TGF-beta1 value.
attributeMeasured: percent inhibition of TGF-beta1

{"substance": "414022 (antisense eG*eG*dG*d[5mC]*dT*d[5mC]*d[5mC]*dG*dG*dT*dT*d[5mC]*dT*dG*d[5mC]*eA*e[5mC]*eT*e[5mC]*eT) [compound 414022]", "attributeMeasured": "percent inhibition of TGF-beta1", "result": "85%"}
{"substance": "414058 (antisense eA*eG*dG*dT*d[5mC]*dA*dA*dG*d[5mC]*d[5mC]*dA*dT*dG*dT*dG*eG*e[5mC]*eA*e[5mC]*e[5mC]) [compound 414058]", "attributeMeasured": "percent inhibition of TGF-beta1", "result": "88%"}
{"substance": "413970 (antisense eG*e[5mC]*d[5mC]*dT*d[5mC]*dA*dG*dG*d[5mC]*dT*dG*d[5mC]*dT*d[5mC]*d[5mC]*eT*e[5mC]*eG*eG*e[5mC]) [compound 413970]", "attributeMeasured": "percent inhibition of TGF-beta1", "result": "91%"}
{"substance": "413979 (antisense eG*eG*d[5mC]*dT*d[5mC]*d[5mC]*d[5mC]*dA*dG*d[5mC]*dG*dG*d[5mC]*dA*dA*e[5mC]*eG*eG*eA*eA) [compound 413979]", "attributeMeasured": "percent inhibition of TGF-beta1", "result": "92%"}
{"substance": "414102 (antisense eT*eT*dT*dG*dA*dA*d[5mC]*dT*dA*d[5mC]*dA*dT*dG*dG*dG*eT*e[5mC]*e[5mC]*eT*e[5mC]) [compound 414102]", "attributeMeasured": "percent inhibition of TGF-beta1", "result": "84%"}
{"substance": "414037 (antisense eG*eG*dG*dT*dG*dT*d[5mC]*d[5mC]*dT*dT*dA*dA*dA*dT*dA*e[5mC]*eA*eG*e[5mC]*e[5mC]) [compound 414037]", "attributeMeasured": "percent inhibition of TGF-beta1", "result": "93%"}
{"substance": "414035 (antisense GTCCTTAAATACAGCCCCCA; sugars from the 5' end e2 d13 e5, backbone and methylation of C not given here) [compound 414035]", "attributeMeasured": "percent inhibition of TGF-beta1", "result": "94%"}
{"substance": "414040 (antisense e[5mC]*eT*d[5mC]*dT*d[5mC]*dT*d[5mC]*d[5mC]*dA*dT*d[5mC]*dT*dT*dT*dA*eA*eT*eG*eG*eG) [compound 414040]", "attributeMeasured": "percent inhibition of TGF-beta1", "result": "94%"}
{"substance": "414036 (antisense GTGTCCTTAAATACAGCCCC; sugars from the 5' end e2 d13 e5, backbone and methylation of C not given here) [compound 414036]", "attributeMeasured": "percent inhibition of TGF-beta1", "result": "93%"}
{"substance": "413982 (antisense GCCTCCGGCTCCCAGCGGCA; sugars from the 5' end e2 d13 e5, backbone and methylation of C not given here) [compound 413982]", "attributeMeasured": "percent inhibition of TGF-beta1", "result": "95%"}

Origin of the recorded values: patent US20110172296A1
